Form: system (factor Xa (Bos taurus, UniProt P00743)), quantity (pKi), values below.
Where a name gives a salt, the structure may show the parent alone.
One number for each entry, as −log10 of the molar value.

                                   molecule                            study_target  reported_value
0  N=C(N)c1ccc(CNC(=O)CNC(=O)[C@@H](CCc2ccccc2)NS(=O)(=O)Cc2ccccn2)cc1 [Compound 8, 2-PMs-d-homoPhe-Gly-4Amba×2 TFA]  factor Xa (Bos taurus, UniProt P00743)            7.29
1  CS(=O)(=O)N[C@H](CCc1ccccc1)C(=O)NCC(=O)NCc1ccc(C(=N)N)cc1 [Compound 13]  factor Xa (Bos taurus, UniProt P00743)            5.96
2  N=C(N)c1ccc(CNC(=O)CNC(=O)[C@@H](/C=C/c2ccccc2)NS(=O)(=O)Cc2ccccc2)cc1 [Compound 40]  factor Xa (Bos taurus, UniProt P00743)            8.19

Challenge: Fill in: pKi of N=C(N)c1ccc(CNC(=O)CNC(=O)[C@@H](CCc2ccc(O)cc2)NS(=O)(=O)Cc2ccccc2)cc1 [Compound 5, Bzls-d-homoTyr-Gly-4Amba×TFA] is ___
Response given: 8.57

----------
# Study Target: factor Xa (Bos taurus)
# Construct: purchased Diagnostic Reagents Ltd, Thame, GB
# Sequence (P00743 234-492 limits assumed): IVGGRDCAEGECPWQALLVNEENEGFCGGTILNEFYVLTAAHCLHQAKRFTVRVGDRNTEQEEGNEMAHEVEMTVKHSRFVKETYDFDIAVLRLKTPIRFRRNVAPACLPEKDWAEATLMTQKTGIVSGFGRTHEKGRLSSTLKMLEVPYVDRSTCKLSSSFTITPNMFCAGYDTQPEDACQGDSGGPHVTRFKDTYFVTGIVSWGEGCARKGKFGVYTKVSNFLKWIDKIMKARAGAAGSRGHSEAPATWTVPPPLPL
# Sequence (P00743 41-180 partner limits assumed): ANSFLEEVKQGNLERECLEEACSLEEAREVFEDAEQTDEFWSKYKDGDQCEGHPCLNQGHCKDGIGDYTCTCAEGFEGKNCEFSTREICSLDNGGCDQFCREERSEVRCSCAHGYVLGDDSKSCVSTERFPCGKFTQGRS
# Method Description: Determination of the inhibitory constants for factor Xa (chromogenic substrate Moc-D-Nle-Gly-Arg-pNA, Dixon method)
# Format: biochemical, bovine
Where a name gives a salt, the structure may show the parent alone.
Assay Readout: selectivity ratio SR (SR = Ki thrombin/Ki factor Xa)

                                   molecule  reported_value
0  N=C(N)c1ccc(CNC(=O)CNC(=O)[C@H](NS(=O)(=O)Cc2ccccc2)C2Cc3ccccc3C2)cc1             5.2
1  N=C(N)c1ccc(CNC(=O)CNC(=O)C(CCc2ccccn2)NS(=O)(=O)Cc2ccccc2)cc1 (centres unmarked)             952
2  N=C(N)c1ccc(CNC(=O)CNC(=O)[C@@H](CCc2ccccc2)NS(=O)(=O)Cc2ccccc2[N+](=O)[O-])cc1              46
3  N=C(N)c1ccc(CNC(=O)CNC(=O)[C@@H](CCc2ccccc2)NS(=O)(=O)Cc2ccncc2)cc1              45
4  N=C(N)c1ccc(CNC(=O)[C@H](CCC(=O)O)NC(=O)[C@@H](CCc2ccc(O)cc2)NS(=O)(=O)Cc2ccccc2)cc1            5135

Quick request: selectivity ratio SR (SR = Ki thrombin/Ki factor Xa) for each listed item, please.
1. N=C(N)c1ccc(CNC(=O)[C@H](CCC(=O)O)NC(=O)[C@@H](CCc2ccccc2)NS(=O)(=O)Cc2ccccc2)cc1
2. N=C(N)c1ccc(CNC(=O)CNC(=O)[C@@H](CCc2ccc(O)cc2)NS(=O)(=O)Cc2ccccc2)cc1 [Compound 5, Bzls-d-homoTyr-Gly-4Amba×TFA]
3. N=C(N)c1ccc(CNC(=O)CNC(=O)[C@@H](CCc2ccncc2)NS(=O)(=O)Cc2ccccc2)cc1

Response given:
[1153, 556, 259]

----------
Structures can show the parent of a compound that is named as a salt.
Thrombin (UniProt P00735): recorded Ki for assorted compounds
Numbers only, in µM.

Sample answers from the record:
In [3]: df
Out[3]:
                                   compound  reported_value
0  N=C(N)c1ccc(CNC(=O)CNC(=O)[C@@H](CCc2ccccc2)NS(=O)(=O)Cc2ccccn2)cc1 [Compound 8, 2-PMs-d-homoPhe-Gly-4Amba×2 TFA]             4.9
1  N=C(N)c1ccc(CNC(=O)CNC(=O)[C@@H](CCc2ccccc2)NS(=O)(=O)Cc2cccc(N)c2)cc1 [Compound 45]             1.4
2  COC(=O)Cc1ccc(CS(=O)(=O)NC(CCc2ccncc2)C(=O)NCC(=O)NCc2ccc(C(=N)N)cc2)cc1 (stereo not shown) [Compound 44]             3.8
3  N=C(N)c1ccc(CNC(=O)CNC(=O)[C@@H](CCc2ccc(O)cc2)NS(=O)(=O)Cc2ccc(N)cc2)cc1 [Compound 27]            0.56
4  N=C(N)c1ccc(CNC(=O)CNC(=O)[C@@H](CCc2ccccc2)NS(=O)(=O)Cc2ccccc2)cc1 [Compound 11]           0.047
5  N=C(N)c1ccc(CNC(=O)CNC(=O)C(CCc2cc[n+]([O-])cc2)NS(=O)(=O)Cc2ccccc2)cc1 (stereo not shown) [Compound 60]             3.5

Challenge: # query: Ki of entry N=C(N)c1ccc(CNC(=O)[C@H](CO)NC(=O)[C@@H](CCc2ccccc2)NS(=O)(=O)Cc2ccccc2)cc1 [Compound 15]
Response given: 0.6

----------
# Study Target: factor Xa (Bos taurus)
# Construct: purchased Diagnostic Reagents Ltd, Thame, GB
# Method Description: Determination of the inhibitory constants for factor Xa (chromogenic substrate Moc-D-Nle-Gly-Arg-pNA, Dixon method)
# Type: biochemical, bovine
For each entry below, report its selectivity ratio SR (SR = Ki thrombin/Ki factor Xa) value.
Numbers only.

As a guide, the following entries are already answered.
>>> df
                                   compound  reported_value
0  N=C(N)c1ccc(CNC(=O)[C@H](CCC(=O)OCc2ccccc2)NC(=O)C(CCc2ccncc2)NS(=O)(=O)Cc2ccccc2)cc1 (stereo partly drawn)              26
1  N=C(N)c1ccc(CNC(=O)CNC(=O)[C@@H](CCc2ccccc2)NS(=O)(=O)Cc2cc[n+]([O-])cc2)cc1              16
2  COC(=O)Cc1ccc(CS(=O)(=O)N[C@H](CCc2ccccc2)C(=O)NCC(=O)NCc2ccc(C(=N)N)cc2)cc1              47
3  N=C(N)c1ccc(CNC(=O)[C@H](CCCc2ccccc2)NC(=O)C(CCc2ccncc2)NS(=O)(=O)Cc2ccccc2)cc1 (stereo partly drawn)              30
4  N=C(N)c1ccc(CNC(=O)[C@H](CCC(=O)O)NC(=O)[C@@H](CCc2ccccc2)NS(=O)(=O)Cc2cccc([N+](=O)[O-])c2)cc1             156

# ---- query compound ----
Challenge: Can you share its selectivity ratio SR (SR = Ki thrombin/Ki factor Xa)? I mean this compound: `N=C(N)c1ccc(CNC(=O)CNC(=O)[C@@H](/C=C/c2ccccc2)NS(=O)(=O)Cc2ccccc2)cc1`
Response given: 170

----------
# Study Target: factor Xa (Bos taurus)
# Construct: purchased Diagnostic Reagents Ltd, Thame, GB
# Method Description: Determination of the inhibitory constants for factor Xa (chromogenic substrate Moc-D-Nle-Gly-Arg-pNA, Dixon method)
# Assay type: biochemical, bovine
Counter-ions that a name gives are not always drawn.
Note to self: values exactly at 300 are MET. So selectivity ratio SR (SR = Ki thrombin/Ki factor Xa) at or above 300 is MET, below is NOT MET.

The examples below pair each entry with its known result.
                                   molecule            study_target    group
0  N=C(N)c1ccc(CNC(=O)CNC(=O)C(CCc2ccncc2)NS(=O)(=O)Cc2ccc(CC(=O)O)cc2)cc1 (stereo not drawn)  factor Xa (Bos taurus)      MET
1  N=C(N)c1ccc(CNC(=O)[C@H](CCC(=O)O)NC(=O)C(CCc2ccncc2)NS(=O)(=O)Cc2ccc([N+](=O)[O-])cc2)cc1 (stereo partly drawn)  factor Xa (Bos taurus)      MET
2  N=C(N)c1ccc(CNC(=O)[C@H](CCC(=O)NCc2ccccc2)NC(=O)[C@@H](CCc2ccncc2)NS(=O)(=O)Cc2ccccc2)cc1  factor Xa (Bos taurus)  NOT MET
3  N=C(N)c1ccc(CNC(=O)CNC(=O)[C@@H](CCc2ccccc2)NS(=O)(=O)Cc2ccccn2)cc1 [Compound 8, 2-PMs-d-homoPhe-Gly-4Amba×2 TFA]  factor Xa (Bos taurus)  NOT MET

# ---- query molecule ----
Challenge: Hi team, for `N=C(N)c1ccc(CNC(=O)[C@H](CO)NC(=O)[C@@H](CCc2ccccc2)NS(=O)(=O)Cc2ccccc2)cc1` , is the recorded selectivity ratio SR (SR = Ki thrombin/Ki factor Xa) at or above 300?
Response given: NOT MET

----------
A set of compounds tested on Thrombin (UniProt P00735), with measured Ki:
Structures can show the parent of a compound that is named as a salt.

Record excerpt, results attached:
Compound	Ki
N=C(N)c1ccc(CNC(=O)[C@H](CO)NC(=O)[C@H](CCc2ccncc2)NS(=O)(=O)Cc2ccccc2)cc1 [Compound 3b, Bzls-D,L-homoAla(4-Pyr)-Ser-4Amba×2 TFA]	4600 nM
N=C(N)c1ccc(CNC(=O)CNC(=O)[C@@H](CCc2ccccc2)NS(=O)(=O)Cc2ccccc2[N+](=O)[O-])cc1 [Compound 20]	1200 nM

// each listed compound needs a value for Ki
1. N=C(N)c1ccc(CNC(=O)CNC(=O)[C@@H](CCc2ccc(O)cc2)NS(=O)(=O)Cc2ccccc2)cc1 [Compound 5, Bzls-d-homoTyr-Gly-4Amba×TFA]
2. N=C(N)c1ccc(CNC(=O)[C@H](CO)NC(=O)[C@@H](CCc2ccccc2)NS(=O)(=O)Cc2ccncc2)cc1 [Compound 7, 4-PMs-dhomoPhe-Gly-4Amba×2 TFA]
3. N=C(N)c1ccc(CNC(=O)CNC(=O)[C@@H](CCc2ccccc2)NS(=O)(=O)Cc2ccc(O)cc2)cc1 [Compound 32]
4. N=C(N)c1ccc(CNC(=O)CNC(=O)[C@@H](CCc2ccccc2)NS(=O)(=O)Cc2ccc(N)cc2)cc1 [Compound 29]
5. CC(C)(C)OC(=O)CC[C@H](NC(=O)[C@@H](CCc1ccc(O)cc1)NS(=O)(=O)Cc1ccc([N+](=O)[O-])cc1)C(=O)NCc1ccc(C(=N)N)cc1 [Compound 54]
6. N=C(N)c1ccc(CNC(=O)CNC(=O)C(CCc2ccncc2)NS(=O)(=O)Cc2ccc(N)cc2)cc1 (stereo not shown) [Compound 28]
7. N=C(N)c1ccc(CNC(=O)[C@H](CO)NC(=O)[C@@H](CCc2ccc(O)cc2)NS(=O)(=O)Cc2ccccc2)cc1 [Compound 6, Bzls-d-homoTyr-Ser-4Amba×TFA]
8. N=C(N)c1ccc(CNC(=O)[C@H](CCC(=O)O)NC(=O)[C@@H](CCc2ccncc2)NS(=O)(=O)Cc2ccc(N)cc2)cc1 [Compound 52]

Response given:
1. 1500 nM
2. 3300 nM
3. 380 nM
4. 260 nM
5. 690 nM
6. 1000 nM
7. 1400 nM
8. 84000 nM
